# target-system: thromboxane synthetase (Homo sapiens, UniProt P24557)
# Construct: The citrated blood was centrifuged at 160 g for 10 mins. at 22° C. to obtain platelet rich plasma (prp); endogenous in cells
# Sequence (P24557 whole entry): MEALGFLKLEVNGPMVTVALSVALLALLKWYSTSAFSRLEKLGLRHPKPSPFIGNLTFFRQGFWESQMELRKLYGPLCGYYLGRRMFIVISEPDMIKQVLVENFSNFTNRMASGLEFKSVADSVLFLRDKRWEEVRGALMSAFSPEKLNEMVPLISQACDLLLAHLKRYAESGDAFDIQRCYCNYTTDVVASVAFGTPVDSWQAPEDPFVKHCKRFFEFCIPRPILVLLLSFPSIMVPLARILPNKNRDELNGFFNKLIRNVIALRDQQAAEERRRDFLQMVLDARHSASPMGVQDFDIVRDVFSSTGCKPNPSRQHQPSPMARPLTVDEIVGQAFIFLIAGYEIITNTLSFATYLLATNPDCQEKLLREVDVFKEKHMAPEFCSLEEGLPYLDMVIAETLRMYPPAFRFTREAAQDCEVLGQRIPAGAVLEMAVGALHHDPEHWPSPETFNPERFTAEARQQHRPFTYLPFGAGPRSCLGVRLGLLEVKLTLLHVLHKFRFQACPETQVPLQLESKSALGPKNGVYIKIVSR
# method-notes: Thromboxane production in Human Platelet Rich Plasma (collagen-stimulated, TxB2 radioimmunoassay)
# experimental-setup: 10 min. incubation, collagen 20 μg/ml, 37° C., read-out: ACTIVITY (IC50 × 10^6 M), inhibition of collagen-induced TxB2 generation
Doc: threshold 2 µM (exclusive). Items with IC50 beneath it return 1.0; others return 0.0.

molecule	class-label
COc1ccc(C=C(COCc2ccc(OC)cc2)Cn2ccnc2)cc1 [Example 7]	0.0
CCOC(=O)c1ccc(/C=C(\COCc2ccc(F)cc2)Cn2ccnc2)cc1 [13 (Z-isomer)]	1.0
CCOC(=O)c1ccc(/C=C(/COCc2ccc(OC)cc2)Cn2ccnc2)cc1 [1 (E-isomer)]	1.0
CCOC(=O)CCCCCC=C(CCCc1ccc(OC)cc1)Cn1ccnc1 [Example 8]	1.0
CCOC(=O)c1ccc(/C=C(\COCc2ccc(OC)cc2)Cn2ccnc2)cc1 [1 (Z-isomer)]	1.0
COc1ccc(COC/C(=C\c2ccc(C(=O)O)cc2)Cn2ccnc2)cc1 [Example 3]	1.0

Asked: Could you please tell me whether IC50 recorded for COc1ccc(COC/C(=C/c2ccc(C(=O)O)cc2)Cn2ccnc2)cc1 [Example 2] is less than 2 µM?
Given back: 0.0

Asked: Could you please tell me whether IC50 recorded for CCOC(=O)c1ccc(/C=C(/COCc2ccc(OC)cc2)Cn2ccnc2)cc1OC [11 (E-isomer)] is less than 2 µM?
Given back: 0.0

Asked: Could you please tell me whether IC50 recorded for CCOC(=O)CCCCCC=C(COCc1ccc(OC)cc1)Cn1ccnc1 [Example 4] is less than 2 µM?
Given back: 0.0

Asked: Could you please tell me whether IC50 recorded for CCOC(=O)c1ccc(/C=C(/COCc2ccc(OC)cc2)Cn2ccnc2)cc1Cl [10 (E-isomer)] is less than 2 µM?
Given back: 0.0

###

# target-system: thromboxane synthetase (Homo sapiens)
# Construct: The citrated blood was centrifuged at 160 g for 10 mins. at 22° C. to obtain platelet rich plasma (prp); endogenous in cells
# method-notes: Thromboxane production in Human Platelet Rich Plasma (collagen-stimulated, TxB2 radioimmunoassay)
# experimental-setup: 10 min. incubation, collagen 20 μg/ml, 37° C., read-out: ACTIVITY (IC50 × 10^6 M), inhibition of collagen-induced TxB2 generation
pIC50: −log10 of the molar value.
Label scheme for pIC50: lower than 5 is rule not met, 5 and above is rule met.

compound	class-label
CCOC(=O)c1ccc(/C=C(\CCCc2ccc(OC)cc2)Cn2ccnc2)cc1 [12 (E-isomer)]	rule met
CCOC(=O)c1cccc(/C=C(/COCc2ccc(OC)cc2)Cn2ccnc2)c1 [9 (E-isomer)]	rule not met
COc1ccc(COCC(=CCCCCCC(=O)O)Cn2ccnc2)cc1	rule met

Then there is this compound:
Asked: Kindly determine if pIC50 recorded for `COc1ccc(COCC(=CCCCCC(=O)O)Cn2ccnc2)cc1` is above or exactly 5.
Given back: rule met
